study.target: human Edg-1 (S1P1) (Homo sapiens)
Construct: expressed in transfected cells; host or cells: HEK-293
Sequence (P21453 whole entry): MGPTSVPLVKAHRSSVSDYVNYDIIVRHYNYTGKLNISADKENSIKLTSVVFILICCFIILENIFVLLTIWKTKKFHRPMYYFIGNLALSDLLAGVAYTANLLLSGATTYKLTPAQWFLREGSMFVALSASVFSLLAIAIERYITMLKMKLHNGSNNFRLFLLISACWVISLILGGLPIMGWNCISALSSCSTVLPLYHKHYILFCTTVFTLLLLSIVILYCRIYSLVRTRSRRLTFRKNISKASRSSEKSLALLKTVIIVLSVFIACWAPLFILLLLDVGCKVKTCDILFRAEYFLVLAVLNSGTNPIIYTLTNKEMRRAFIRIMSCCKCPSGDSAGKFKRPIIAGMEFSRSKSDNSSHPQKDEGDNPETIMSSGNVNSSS
assay.text: S1P1 binding inhibition test (membrane, [33P]-S1P)
condition.notes: compound 10 μM; [33P]-S1P 0.1 nM; human Edg-1 (S1P1) HEK-293 membrane fraction; read-out: Binding test (membrane) % inhibition (10 μM)
reported.property: inhibition at 10 µM (%)

• CCn1c(C(C)NS(=O)(=O)c2ccc(Cl)c(Cl)c2)cnc1OC(C)C (stereo not drawn) = 87.6
• CCn1c(C(C)NS(=O)(=O)c2ccc(Cl)c(Cl)c2Cl)cnc1Oc1ccc(C)cc1 (stereo not drawn) = 103
• CCn1c(C(C)NS(=O)(=O)c2ccc(C(F)(F)F)cc2)cnc1Oc1ccc(C)cc1 (stereo not drawn) = 93.5
• CCn1c(C(C)NS(=O)(=O)c2ccc3cc(C)ccc3c2)cnc1Oc1cccc(N2CCN(C)CC2)c1 (stereo not drawn) = 94.5
• CCn1c(C(C)NS(=O)(=O)c2cc(Cl)ccc2Cl)cnc1Oc1ccc(C)cc1 (stereo not drawn) = 80
• CCn1c(C(C)NS(=O)(=O)c2cc(F)c(F)cc2Cl)cnc1Oc1ccc(C)cc1 (stereo not drawn) = 75.2

----------
Listing of entries alongside the reported melting point.

Enquiry: // query melting point value for entry CCn1c(C(C)NS(=O)(=O)c2ccc(Cl)c(Cl)c2)cnc1S(=O)(=O)c1ccc(C)cc1 (centres unmarked) [Compound 252]
Return: 180 to 183 °C

Enquiry: // query melting point value for entry CCn1c(C(C)NS(=O)(=O)c2ccc(Cl)c(Cl)c2)cnc1Oc1cc(C(F)(F)F)n(C)n1 (centres unmarked) [Compound 217]
Return: 146 to 148 °C

----------
study.target: human Edg-1 (S1P1) (Homo sapiens)
Construct: expressed in transfected cells; host or cells: HEK-293
assay.text: S1P1 binding inhibition test (membrane, [33P]-S1P)
condition.notes: compound 10 μM; [33P]-S1P 0.1 nM; human Edg-1 (S1P1) HEK-293 membrane fraction; read-out: Binding test (membrane) % inhibition (10 μM)
reported.property: inhibition at 10 µM (%)

• CCn1c(C(C)NS(=O)(=O)c2ccc(Cl)cc2Cl)cnc1Oc1ccc(C)cc1 (centres unmarked) = 90.1
• CCn1c(C(C)NS(=O)(=O)c2ccc(C(F)(F)F)cc2Cl)cnc1Oc1ccc(C)cc1 (centres unmarked) = 57
• CCn1c(C(C)NS(=O)(=O)c2c(C)c(C)cc(C)c2C)cnc1Oc1ccc(C)cc1 (centres unmarked) = 66.4
• CCCOc1ncc(C(C)NS(=O)(=O)c2ccc(Cl)c(Cl)c2)n1CC (centres unmarked) = 92.1
• CCn1c(C(C)NS(=O)(=O)c2cc(Cl)ccc2F)cnc1Oc1ccc(C)cc1 (centres unmarked) = 65.6

----------
reported.property: melting point

- CCn1c(C(C)NS(=O)(=O)c2ccc(Cl)c(Cl)c2)cnc1Oc1ccc(C)c(C)c1 (stereo not drawn) [Compound 218]: 102.5 to 107.5 °C
- CCn1c(C(C)NS(=O)(=O)c2ccc(Cl)c(Cl)c2)cnc1OCCCOC (stereo not drawn) [Compound 239]: 151.5 to 152.5 °C
- CCn1c(C(Cc2ccccc2)NS(=O)(=O)c2ccc3c(Cl)cccc3c2)cnc1Oc1ccc(F)cc1 (stereo not drawn) [Compound 194]: 172.5 to 174 °C
- CCn1c(C(C)NS(=O)(=O)c2ccc3c(c2)CCC3)cnc1Oc1cccc(N2CCN(C)CC2)c1 (stereo not drawn) [Compound 244]: 160 to 162 °C
- CCn1c(C(Cc2ccc(Cl)cc2)NS(=O)(=O)c2ccc(Cl)c(Cl)c2)cnc1Oc1ccc(F)cc1 (stereo not drawn) [Compound 205]: 155.5 to 156.5 °C

Next item in the queue.
Enquiry: // query melting point value for entry CCn1c(C(C)NS(=O)(=O)c2ccc(Cl)c(Cl)c2)cnc1OC(C)C (stereo not drawn) [Compound 222]
Return: 178 to 180 °C
